Cited source for all entries: PubChem BioAssay AID1159580

Assay: chemical genetic growth profiling, strain panel (AID 1159580);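 also: tested at 20 µM; growth read once vehicle control cultures reached saturation at 30 °C; 1 = growth at the plate median or of vehicle wells; lower values mean less growth of the strain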
Settings: S. cerevisiae deletion strains, growth OD, locus YBR021W, strain FUR4, active compounds read low
About 2,000 (36%) of roughly 5,500 compounds were called active. Roughly 18% stayed inconclusive and do not appear here. Some of the results follow.
// returns -1 unless normalized growth is strictly below 1, in which case 1

Solved entries:
COc1cccc2c(C)cc(=O)[nH]c12 | -1
O=c1cc(-c2ccc(O)cc2)oc2cc(O[C@@H]3O[C@H](CO)[C@@H](O)[C@H](O)[C@H]3O)cc(O)c12 | 1
Cc1ccccc1OCC(O)CO (centres undefined) | -1
Cc1cc(C2CCCCC2)n(O)c(=O)c1 | 1
CC(C)c1c(O)c(-c2cc3c(c(C(C)C)c2O)CCC2C(C)(C)CCC[C@]32C)cc2c1CCC1C(C)(C)CCC[C@]21C (some centres undefined) | -1

Let's switch to this compound now.
[ask] Is normalized growth of `CCCCCCCCCCCC1=C(O)C(=O)C=C(O)C1=O` strictly below 1?
[reply] 1

====

Experiment: chemical genetic growth profiling, strain panel (AID 1159580);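 also: tested at 20 µM; growth read once vehicle control cultures reached saturation at 30 °C; 1 = growth at the plate median or of vehicle wells; lower values mean less growth of the strain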
Conditions: S. cerevisiae deletion strains, growth OD, locus YLL001W, strain dnm1, active compounds read low
Hit rate of the full screen: of about 5,500 compounds, about 2,000 (36%) were called active. Roughly 18% stayed inconclusive and do not appear here. The list shows a part of the results.
endpoint.label: normalized growth
Reply with the value as a number alone.

Entry CCCCC1C(=O)N(c2ccccc2)N(c2ccc(O)cc2)C1=O (stereo unspecified) , normalized growth reported as 1.02

Entry CNC(C)C(O)c1ccccc1 (stereo unspecified) , normalized growth reported as 1.03

Entry CC(=O)Oc1ccc2c(c1OC(C)=O)OCC1(O)Cc3c(cc(OC(C)=O)c(OC(C)=O)c3OC(C)=O)C21 (stereo unspecified) , normalized growth reported as 0.978

Entry `CCCCOc1cc(C(=O)NCCN(CC)CC)c2ccccc2n1` , normalized growth reported as 0.939

Entry CC(=O)Oc1ccc2c(c1C(C)C)CCC1C(C)(C)CCC[C@]21C (stereo partly specified) , normalized growth reported as 1

Entry `CCOCN(C(=O)CCl)c1c(C)cccc1CC` , normalized growth reported as 0.989

Entry CC(C)c1c(O)ccc2c1CCC1[C@@](C)(C=O)CCC[C@]21C (stereo partly specified) , normalized growth reported as 0.964

Entry `C[C@@H]([C@H](O)c1ccccc1)N(C)C` , normalized growth reported as 1.01

Entry N#Cc1nn(-c2c(Cl)cc(C(F)(F)F)cc2Cl)c(N)c1S(=O)C(F)(F)F (stereo unspecified) , normalized growth reported as 0.918

Entry OCC(O)C(O)C(O)C(O)C(O)CO (stereo unspecified) , normalized growth reported as 0.995

Entry CC(=O)OC(C)C[N+](C)(C)C (stereo unspecified) , normalized growth reported as 0.97

====

Test: chemical genetic growth profiling, strain panel (AID 1159580);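 also: tested at 20 µM; growth read once vehicle control cultures reached saturation at 30 °C; 1 = growth at the plate median or of vehicle wells; lower values mean less growth of the strain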
Conditions: S. cerevisiae deletion strains, growth OD, locus YNL209W, strain ssb2, active compounds read low
The whole screen tested about 5,500 compounds, of which about 2,000 (36%) were called active. About 18% were inconclusive and are not listed. The list shows a part of the results.
endpoint.label: normalized growth
Reply with the value as a number alone.

Entry COc1ccc2c(c1)CCC1C2CCC2(C)C1C[C@@H](O)C2O (stereo partly drawn) , normalized growth reported as 1
